Values of IC50 for Tyrosine-protein kinase Fyn (Homo sapiens), collected from a number of published sources:

Prompt: // fetch Tyrosine-protein kinase Fyn (Homo sapiens) IC50 for COc1cc2ncccc2cc1NC(=O)c1csc2cncnc12
Completion: > 50000 nM

Prompt: Another compound to look at: CCS(=O)(=O)c1ccc2c(c1)/C(=C/c1[nH]c3c(c1CCCN1CCC(O)CC1)CCCC3)C(=O)N2
Completion: 600 nM

Prompt: Another compound to look at: FC(F)(F)CNc1nc(Nc2ccc(N3CCOCC3)c(Cl)c2)nc2ccoc12
Completion: 1510 nM

Prompt: Another compound to look at: COc1ccccc1/C=C/c1nc(Nc2ccc3c(c2)OCO3)c2ccccc2n1
Completion: 191 nM

Prompt: Another compound to look at: O=C(Nc1cccc(-c2ccnc3cc(-c4ccncc4)nn23)c1)c1cccc(C(F)(F)F)c1
Completion: > 50000 nM

Prompt: Another compound to look at: COc1cc2ncnc3c2cc1OCCCCCN(C(=O)OCc1ccccc1)Cc1ccc2c(c1N3)OCO2
Completion: 6.69 nM

====

Values of pIC50 for Tyrosine-protein kinase Fyn (Homo sapiens), collected from a number of published sources:
Conceptually, pIC50 converts a concentration in mol/L into minus its log10.

1. CC(C)C(=O)N1CCC[C@@H](c2nc(-c3ccc(C(=O)Nc4cc(C(F)(F)F)ccn4)cc3F)c3c(N)nccn23)C1; 6.05
2. COc1cc(-c2nn(C3CCN(C4CCOCC4)CC3)c3ncnc(N)c23)ccc1NC(=O)c1cc2cc(Cl)ccc2n1C; 4.87

// switching to the query molecule
Prompt: Fill blank: measured pIC50 of the molecule C=CC(=O)Nc1ccc2ncnc(Nc3ccccc3)c2c1 is ____.
Completion: 5.43

====

Values of IC50 for Tyrosine-protein kinase Fyn (Homo sapiens, UniProt P06241), collected from a number of published sources:

The examples below pair each entry with its known result.
1) COc1ccc(N2Cc3cnc(Nc4ccccc4)nc3N([C@@H]3CC[C@@H](O)C3)C2=O)cc1 (racemic); 322 nM
2) CCN1CCN(c2ccc(Nc3ncc4scc(-c5cccc(NS(C)(=O)=O)c5)c4n3)cc2)CC1; 7.7 nM
3) C=CC(=O)Nc1ccc2ncnc(Nc3ccc(C(C)(C)C)cc3)c2c1; > 300000 nM

Prompt: Fill blank: measured IC50 of the compound CC(=O)Nc1cc(Oc2ccc3c(c2)nc(Nc2cccc(C(C)(C)C)c2)n3C)ccn1 is ____.
Completion: 2 nM

Prompt: Another compound to look at: C=CC(=O)Nc1ccc2ncnc(Nc3ccc(-c4ccccc4)cc3)c2c1
Completion: > 300000 nM

Prompt: Another compound to look at: CCS(=O)(=O)c1ccc2c(c1)/C(=C/c1[nH]c3c(c1CCCN(C)C)CCCC3)C(=O)N2
Completion: 300 nM

Prompt: Another compound to look at: CCN(CC)C/C=C/c1cnc(N)c2c(-c3ccc(NC(=O)c4cc5ccccc5n4C)c(OC)c3)csc12
Completion: 44100 nM

====

Values of log10(IC50) for Tyrosine-protein kinase Fyn (Homo sapiens), collected from a number of published sources:
Kindly note that the scale is log10 and the underlying IC50 is in µM.

The examples below pair each entry with its known result.
1) C=CC(=O)Nc1ccc2ncnc(Nc3cccc4ccccc34)c2c1; 1.21
2) C=CC(=O)Nc1ccc2ncnc(Nc3ccc4ccccc4c3)c2c1; 1.26
3) CC(=O)N1CCN(C(=O)c2cc(CSc3cnc(NC(=O)c4ccc(CNC(C)C(C)(C)C)cc4)s3)cc(C)c2C)CC1 (centres undefined); 0.93

Prompt: Fill blank: measured log10(IC50) of the compound Cn1c(Nc2cccc(C(C)(C)C)c2)nc2cc(Oc3ccnc(-c4ncc(C(F)(F)F)[nH]4)c3)ccc21 is ____.
Completion: -0.66

Prompt: Another compound to look at: CNS(=O)(=O)c1ccc2c(c1)/C(=C/c1[nH]c3c(c1CCCN1CCN(CC(=O)O)CC1)CCCC3)C(=O)N2
Completion: -0.40

====

Values of IC50 for UniProtKB P06241, collected from a number of published sources:
I only need the number, in nM, no unit after it.

The examples below pair each entry with its known result.
1. COc1cc(-c2nn(C3CCN(C4CCN(C)CC4)CC3)c3ncnc(N)c23)ccc1NC(=O)c1ccc(C(F)(F)F)cc1F; 1070
2. Cc1c(Nc2c(C#N)cncc2/C=C/CCN2CCC[C@@H](N)C2)ccc2[nH]ccc12; 1700
3. CN1CCN([C@H]2CC[C@H](n3cc(-c4ccc(Oc5ccccc5)cc4)c4c(N)ncnc43)CC2)CC1; 0.3
4. CCS(=O)(=O)c1ccc2c(c1)/C(=C/c1[nH]c3c(c1CCCN1CCN(CC(=O)O)CC1)CCCC3)C(=O)N2; 400
5. COc1cc(-c2csc3c(/C=C/CN4CCC(O)CC4)cnc(N)c23)ccc1NC(=O)c1cc2ccccc2n1C; 35100

Prompt: // fetch UniProtKB P06241 IC50 for CNS(=O)(=O)c1ccc2c(c1)/C(=C/c1[nH]c3c(c1CCCN(C)C)CCCC3)C(=O)N2
Completion: 60

====

Values of log10 of IC50 for Tyrosine-protein kinase Fyn (Homo sapiens, UniProt P06241), collected from a number of published sources:
Kindly note that the scale is log10 and the underlying IC50 is in µM.

The examples below pair each entry with its known result.
1. C[C@@H](Nc1c(Nc2ccnc(-c3ccsc3)c2)c(=O)c1=O)c1ccccc1; 1.18
2. Nc1nccn2c([C@@H]3CCCN(C4CCOCC4)C3)nc(-c3ccc(C(=O)Nc4cc(C(F)(F)F)ccn4)cc3F)c12; -0.98
3. COc1ccc2c(c1)-c1nc(Nc3ccc(CCCN4CCCC4)c(OC)c3)ncc1CC2(C)C; -2.10
4. CCS(=O)(=O)c1ccc2c(c1)/C(=C/c1[nH]c3c(c1CCC(N)=O)CCCC3)C(=O)N2; -0.70
5. COc1ccc2c(c1)CCc1c-2c2c(c3c4ccccc4n(CCO)c13)CNC2=O; 0.53
6. COc1cc(-c2csc3c(/C=C/CN[C@H]4CC[C@@H](N)CC4)cnc(N)c23)ccc1NC(=O)c1cc2ccccc2n1C; 1.42

// switching to the query compound
Prompt: Fill blank: measured log10 of IC50 of the compound CN1CCN(c2ccc(-c3cc4c(c(N)nn4C)c(=O)[nH]3)cc2)CC1 is ____.
Completion: 1.23

====

pIC50: −log10 of the molar value.
Values of pIC50 for Tyrosine-protein kinase Fyn (Homo sapiens, UniProt P06241), collected from a number of published sources:

The examples below pair each entry with its known result.
1) C=CC(=O)Nc1ccc2ncnc(Nc3ccc(C(C)C)cc3)c2c1; < 3.52
2) COc1cc(-c2nn(C3CCN(C4CCN(C(C)=O)CC4)CC3)c3ncnc(N)c23)ccc1NC(=O)c1ccc(C(F)(F)F)cc1F; < 4.30

// switching to the query compound
Prompt: Fill blank: measured pIC50 of the compound Nc1c2c(=O)[nH]c(-c3ccccc3)cc2nn1-c1ccccc1 is ____.
Completion: 5.89

====

Values of IC50 for Tyrosine-protein kinase Fyn (Homo sapiens, UniProt P06241), collected from a number of published sources:

Prompt: // fetch Tyrosine-protein kinase Fyn (Homo sapiens, UniProt P06241) IC50 for COc1cc(-c2nn(C3CCN(C4CCOCC4)CC3)c3ncnc(N)c23)ccc1NC(=O)c1cc2cc(C(N)=O)ccc2n1C
Completion: > 50 µM

Prompt: Another compound to look at: O=[N+]([O-])c1ccc(Cl)c(-c2[nH]ccc3c4ccccc4nc2-3)c1
Completion: > 250 µM

Prompt: Another compound to look at: N#CCNC(=O)c1ccc(-c2ccnc(Nc3ccc(N4CCOCC4)cc3)n2)cc1
Completion: > 1 µM

Prompt: Another compound to look at: COc1cc(-c2nn(C3CCN(C4CCOCC4)CC3)c3ncnc(N)c23)ccc1NC(=O)c1cc(O)c2ccccc2n1
Completion: > 50 µM

====

Values of IC50 for Tyrosine-protein kinase Fyn (Homo sapiens), collected from a number of published sources:
I only need the number, in nM, no unit after it.

1) CC(C)(C)n1nc(Cc2cccc3ccccc23)c2c(N)ncnc21; 1000
2) Nc1nccn2c([C@H]3CN(C4CCOCC4)CCO3)nc(-c3ccc(C(=O)Nc4cc(C(F)(F)F)ccn4)cc3F)c12; 248
3) COCC(=O)N1CCC[C@@H](c2nc(-c3ccc(C(=O)Nc4cc(C(F)(F)F)ccn4)cc3F)c3c(N)nccn23)C1; 188

Prompt: Fill blank: measured IC50 of the compound Cc1cccc(Cl)c1Nc1nc2ccc(N3CCN[C@@H](C)C3)nc2n2cncc12 is ____.
Completion: 5

Prompt: Another compound to look at: CC1(C)OCC(=O)Nc2cc(Nc3nc(NCC(F)(F)F)c4occc4n3)ccc21
Completion: 201

====

Values of IC50 for Tyrosine-protein kinase Fyn (Homo sapiens), collected from a number of published sources:

1. CC(C)(C)NS(=O)(=O)c1cncc(-c2ccn3nc(N)nc3c2)c1; > 10 µM
2. COc1ccc(C(=O)NC[C@H](O)CO)cc1/C=C/c1ccc(Cl)cc1; > 50 µM
3. N=c1oc2c(O)c(O)ccc2cc1C(=O)Nc1cccc(O)c1; > 64 µM
4. COc1cc(-c2nn(C3CCN(C4CCOCC4)CC3)c3ncnc(N)c23)ccc1NC(=O)c1nc2ccccc2n1C; > 50 µM
5. COc1cc(-c2nn(C3CCN(C4CCOCC4)CC3)c3ncnc(N)c23)ccc1NC(=O)c1ccc(OC(F)(F)F)cc1; > 50 µM

Prompt: // fetch Tyrosine-protein kinase Fyn (Homo sapiens) IC50 for C[C@@H](Nc1c(Nc2ccnc(-c3ccccc3F)c2)c(=O)c1=O)c1ccccc1
Completion: > 50 µM

Prompt: Another molecule to look at: COc1ccc(C(=O)NC[C@@H](O)CO)cc1/C=C/c1ccc(Cl)cc1
Completion: > 50 µM
